tested on: Plasmodium falciparum; assay: Antiplasmodial activity against chloroquine-sensitive Plasmodium falciparum Dd2 by [3H]hypoxanthine incorporation; assay type: functional, organism-based
Property: pIC50
Reminder that pIC50 means the negative base-10 logarithm of the concentration expressed in mol/L.

Q: # value lookup — system Plasmodium falciparum, readout pIC50, item CCCCOc1ccc(C(=O)/C=C/c2ccc(OC)cc2OC)cc1
Ans: 4.83

* * *

test system: Plasmodium falciparum; assay: Antiplasmodial activity against multiresistant Plasmodium falciparum Dd2 by [3H]hypoxanthine incorporation; assay type: functional, organism-based
Property: pIC50
Reminder that pIC50 means the negative base-10 logarithm of the concentration expressed in mol/L.

Q: Please report the recorded pIC50 for COc1cc(O)c(CC=C(C)C)c(O)c1C(=O)/C=C/c1ccc(O)cc1 .
Ans: 4.62
